Recorded values, source patent US20230029835A1.

# system: T1, Cynomolgus macaques TSLP recombinant protein (Cynomolgus macaques, UniProt Q969D9 29-159 (human entry), limits assumed, biotinylated in the blocking assays (sites not given))
# T1 construct: also called cyTSLP; biotinylated Cynomolgus macaques TSLP protein
# T1 chain: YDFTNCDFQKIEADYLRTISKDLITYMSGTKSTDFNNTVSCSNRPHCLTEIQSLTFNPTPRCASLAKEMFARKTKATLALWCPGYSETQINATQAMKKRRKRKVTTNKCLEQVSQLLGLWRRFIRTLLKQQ
# test: SPR BIAcore T200, antibody captured on Protein A, cynomolgus TSLP injected
Listed below: pKd values for each entry.
Please express pKd as -log10 of the molar concentration.

Use these answered entries as a reference point.
binder="Ab23 (antibody, V domains shown, Humanized; also called h39G5VHv2/h71G4VKv1; h39G5VHv2/h71G4VKv1 hIgG1) VH: QVQLVQSGAEVKKPGSSVKVSCKASGYSFISYWIHWVRQAPGQGLEWMGIIDPSDSDTSLNQKFQGRVTITADESTSTAYMELSSLRSEDTAVYYCARSLDGYYDYWGQGTLVTVSS VL: DIQMTQSPSSLSASVGDRVTITCRTSENIYSYLAWYQQKPGKAPKLLIYFAKTLTDGVPSRFSGSGSGTDFTLTISSLQPEDFATYYCQHHYGTPWTFGQGTKVEIK" measured_quantity=pKd result_number=14.15
binder="Ab26 (antibody, V domains shown, Humanized; also called h39G5VHv10/h71G4VKv1; h39G5VHv10/h71G4VKv1 hIgG1) VH: QVQLVQSGAEVKKPGSSVKVSCKASGYTFTDYWMHWVRQAPGQGLEWMGIIDPSDSDTSLNQKFQGRVTITADTSTSTAYMELSSLRSEDTAVYYCARSLDGYYDYWGQGTLVTVSS VL: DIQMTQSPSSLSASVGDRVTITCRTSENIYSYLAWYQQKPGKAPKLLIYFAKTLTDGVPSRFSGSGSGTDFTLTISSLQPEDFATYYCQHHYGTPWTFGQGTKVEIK" measured_quantity=pKd result_number=12.51
binder="Ab22 (antibody, V domains shown, Humanized; also called h39G5VHv1/h71G4VKv1; h39G5VHv1/h7IG4VKv1 hIgG1) VH: QVQLVQSGAEVKKPGSSVKVSCKASGYSFISYWIHWVRQAPGQGLEWMGIIDPSDSDTSLNQKFQGRVTLTVDKSSTTAYMELSSLRSEDTAVYYCARSLDGYYDYWGQGTLVTVSS VL: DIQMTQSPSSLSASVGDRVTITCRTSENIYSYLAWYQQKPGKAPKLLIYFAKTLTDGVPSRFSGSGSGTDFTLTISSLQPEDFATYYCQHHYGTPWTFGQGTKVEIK" measured_quantity=pKd result_number=13.38

Proceed to the following item.
Reported pKd, binder Ab24 (antibody, V domains shown, Humanized; also called h39G5VHv5/h71G4VKv1; h39G5VHv5/h71G4VKv1 hIgG1) VH: QVQLVQSGAEVKKPGSSVKVSCKASGYTFTDYWMHWVRQAPGQGLEWMGIIDPSDSDTSLNQKFQGRVTLTVDTSTSTAYMELSSLRSEDTAVYYCARSLDGYYDYWGQGTLVTVSS VL: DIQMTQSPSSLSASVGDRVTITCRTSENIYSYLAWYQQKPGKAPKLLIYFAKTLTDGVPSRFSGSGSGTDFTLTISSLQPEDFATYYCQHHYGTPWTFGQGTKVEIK : ____
12.75
